Origin of the recorded values: patent US10517889B2

Test system: human SMAD7 mRNA
Assay: Dose-dependent inhibition of human SMAD7 mRNA expression in Hep3B cells (Example 3, Study 1 and 2)
Format: cell-based
Settings: 2220 nM, electroporation, approximately 16 hours, Study 2
Strand notation (5' to 3'): a small letter for the sugar, then the base; units joined by * are phosphorothioate-linked, units joined directly phosphodiester-linked; [ ] holds rarer units or linkages, { } end groups; capitals alone tell only the bases. k = constrained ethyl (cEt); [5mC] = 5-methylcytosine; d = 2'-deoxy (DNA)
Lab note: anything with % inhibition of SMAD7 mRNA expression at or over 40% counts as TRUE; the rest go in FALSE.

Input: Identify whether the reported % inhibition of SMAD7 mRNA expression of the following substance is 40% or greater: 799509 (antisense kA*kG*kA*dA*dA*d[5mC]*dA*dG*dT*d[5mC]*dT*d[5mC]*d[5mC]*kA*k[5mC]*kA) [compound 799509]
Output: TRUE

Input: Test whether the substance 799563 (kA*kA*kA*dA*d[5mC]*dA*dA*dA*d[5mC]*dA*dA*dG*dG*kG*kT*k[5mC]; antisense) [compound 799563] records % inhibition of SMAD7 mRNA expression of 40% or higher.
Output: TRUE

Input: In plain terms: is recorded % inhibition of SMAD7 mRNA expression at least 40% for 790476 (kT*kT*k[5mC]*dT*dT*dG*dA*dG*d[5mC]*dA*d[5mC]*d[5mC]*dG*kA*kG*kT; antisense) [compound 790476] ?
Output: FALSE

Input: Check this substance for % inhibition of SMAD7 mRNA expression at or above 40%: 799964 (antisense k[5mC]*k[5mC]*k[5mC]*d[5mC]*dT*dT*dA*dG*d[5mC]*dG*d[5mC]*dA*dT*kT*k[5mC]*kT) [compound 799964]
Output: FALSE

Input: Check this substance for % inhibition of SMAD7 mRNA expression at or above 40%: 799312 (antisense k[5mC]*kA*kT*d[5mC]*dT*dT*dT*dA*dA*dG*d[5mC]*dA*d[5mC]*kG*k[5mC]*kT) [compound 799312]
Output: TRUE

Input: Does 829942 (kG*k[5mC]*kA*dT*d[5mC]*dT*dG*dG*dA*d[5mC]*dA*dG*dT*k[5mC]*kA*kG; antisense) [compound 829942] have a reported % inhibition of SMAD7 mRNA expression of at least 40%?
Output: TRUE

###

Assay: Blood chemistry markers after oral gavage in CD-1 mice (Example 7)
Type: in vivo
Conditions: 500 mg/kg oral gavage once daily for 4 weeks, day 30
Label true (1) when AST is at or above 80 IU/L; otherwise label false (0).

Input: Decide: AST of 829994 (GGAGGCAGGGCCGCGA; 3-10-3 cEt gapmer, further chemistry not given here) [compound 829994] >= 80 IU/L?
Output: false (0)

Input: Tell me whether AST is at least 80 IU/L here: 830025 (antisense TTTGTAAATCGAAAGC; 3-10-3 cEt gapmer, further chemistry not given here) [compound 830025]
Output: false (0)

Input: Hello, I need to know if 830121 (AGAATCAAGCCCTGGC; 3-10-3 cEt gapmer, further chemistry not given here) [compound 830121] has measured AST not below 80 IU/L. Thanks!
Output: false (0)

Input: Has 798781 (CGTAAGATTCACAGCA; 3-10-3 cEt gapmer, further chemistry not given here) [compound 798781] a recorded AST greater than or equal to 80 IU/L?
Output: false (0)

Input: Threshold query (AST >= 80 IU/L) on 830037 (antisense CTATTGGCTGATCTGG; 3-10-3 cEt gapmer, further chemistry not given here) [compound 830037]
Output: true (1)

Input: # check: AST of 790615 (CCAATGAGAATGCTTC; 3-10-3 cEt gapmer, further chemistry not given here) [compound 790615] is greater than or equal to 80 IU/L
Output: false (0)
